measurement notes: Assessment of solubility (McIlvaine buffers, 24 h shake, UPLC-UV)
Assay type: physicochemical
measurement conditions: pH 4.5, aqueous buffer, kinetic from dmso stock
quantity name: solubility at 24 h
Hi, when you answer, please include the unit after the number. Thanks!

Example entries begin here.
| molecule | solubility at 24 h |
| --- | --- |
| COc1c(C(=O)O)cnn1-c1cccc(-c2cccc(C(F)(F)F)c2OCc2ccc3c(c2C)CCN(C2COC2)C3)n1 | 63 µg/mL |
| CCOc1c(C(=O)O)cnn1-c1cccc(-c2cccc(C)c2OCc2ccc3c(c2C)CCN(CC2CCCOC2)C3)n1 (stereo not shown) | 88 µg/mL |
| CCOc1c(C(=O)O)cnn1-c1cccc(-c2cccc(C)c2OCc2ccc3c(c2)CCN(C2CCCOC2)C3)n1 (stereo not shown) | 72 µg/mL |
| COc1c(C(=O)O)cnn1-c1cccc(-c2cccc(C)c2OCc2ccc3c(c2)CCN(C2CCOCC2)C3)n1 | 79 µg/mL |
| CCOc1c(C(=O)O)cnn1-c1cccc(-c2cccc(C)c2OCc2cc(C)c3c(c2)CCN(C(C)COC)C3)n1 (stereo not shown) | 87 µg/mL |
| CCOc1c(C(=O)O)cnn1-c1cccc(-c2cccc(C)c2OCc2ccc3c(c2C)CCN(C2COC(C)(C)OC2)C3)n1 | 66 µg/mL |

Let us examine a further case.
Recorded solubility at 24 h (molecule Cc1cccc(-c2cccc(-n3ncc(C(=O)O)c3OC(C)C)n2)c1OCc1ccc2c(c1C)CCN(C1COC1)C2 ): 61 µg/mL

###

measurement notes: Assessment of solubility (McIlvaine buffers, 24 h shake, UPLC-UV)
Assay type: physicochemical
measurement conditions: pH 6.8, aqueous buffer, kinetic from dmso stock
The label depends only on solubility at 24 h: Condition met if it is at least 80 µg/mL, Condition not met if it is smaller.

Recorded results for 3 compounds are shown here.
| compound | qualitative label |
| --- | --- |
| COc1c(C(=O)O)cnn1-c1cccc(-c2cccc(C)c2OCc2ccc3c(c2C)CCN(C[C@H]2COCCO2)CC3)n1 [Compound 203] | Condition not met |
| CCOc1c(C(=O)O)cnn1-c1cccc(-c2cccc(C)c2OCc2ccc3c(c2C)CCN(C[C@H]2CCO2)CC3)n1 [Compound 226] | Condition met |
| Cc1cccc(-c2cccc(-n3ncc(C(=O)O)c3OC(C)C)n2)c1OCc1ccc2c(c1)CCN(C1CCC(F)(F)CC1)C2 [Compound 2] | Condition met |

[ask] Can COc1c(C(=O)O)cnn1-c1cccc(-c2cccc(C)c2OCc2ccc3c(c2C)CCN(S(C)(=O)=O)C3)n1 [Compound 160] be said to have solubility at 24 h at or above 80 µg/mL?
[reply] Condition not met

[ask] Can COc1c(C(=O)O)cnn1-c1cccc(-c2cccc(C)c2OCc2ccc3c(c2)CCN(C2CCOC2)C3)n1 (centres unmarked) [Compound 15] be said to have solubility at 24 h at or above 80 µg/mL?
[reply] Condition met

[ask] Can COc1c(C(=O)O)cnn1-c1cccc(-c2cccc(C)c2OCc2ccc3c(c2)C(C)(C)CN(C2CCCOC2)C3)n1 (centres unmarked) [Compound 218] be said to have solubility at 24 h at or above 80 µg/mL?
[reply] Condition not met

[ask] Can COc1c(C(=O)O)cnn1-c1cccc(-c2cccc(C)c2OCc2ccc3c(c2F)CCN([C@H]2CCOC2)C3)n1 [Compound 251] be said to have solubility at 24 h at or above 80 µg/mL?
[reply] Condition not met

[ask] Can COc1c(C(=O)O)cnn1-c1cccc(-c2cccc(C(F)(F)F)c2OCc2ccc3c(c2)CCN(C2CCOCC2)C3)n1 [Compound 83] be said to have solubility at 24 h at or above 80 µg/mL?
[reply] Condition met

[ask] Can CCOc1c(C(=O)O)cnn1-c1cccc(-c2cccc(C)c2OCc2ccc3c(c2)CCN(C2CCOC(C)(C)C2)C3)n1 (centres unmarked) [Compound 66] be said to have solubility at 24 h at or above 80 µg/mL?
[reply] Condition not met

[ask] Can COc1c(C(=O)O)cnn1-c1cccc(-c2cccc(C)c2OCc2ccc3c(c2)C(C)(C)CN(C2CCOC2)C3)n1 (centres unmarked) [Compound 217] be said to have solubility at 24 h at or above 80 µg/mL?
[reply] Condition not met

[ask] Can CCOc1c(C(=O)O)cnn1-c1cccc(-c2cccc(C)c2OCc2ccc3c(c2C)CCN(C(=O)C2CCOCC2)C3)n1 [Compound 147] be said to have solubility at 24 h at or above 80 µg/mL?
[reply] Condition not met

[ask] Can COc1c(C(=O)O)cnn1-c1cccc(-c2cc(C)ccc2OCc2ccc3c(c2C)CCN(C2CCOCC2)C3)n1 [Compound 124] be said to have solubility at 24 h at or above 80 µg/mL?
[reply] Condition not met

From: patent US8906904B2
